- Test system: barley, winter (winter barley, Hordeum vulgare)
- Method: Test D pre-/postemergence controlled growth environment herbicide test
- Format: in vivo
- Condition Label: Postemergence, 250 g ai/ha, scale 0 to 100
Below, each entry is listed alongside its reported Plant response rating.
// print number alone

Readout Plant response rating for COc1cc(=O)n(-c2ccc(F)cc2)nc1Cc1ccnc(C(F)(F)F)c1 [Compound 17] , test system barley, winter (winter barley, Hordeum vulgare), was 30

Readout Plant response rating for Cc1cc(=O)n(-c2ccc(C(F)(F)F)cc2)nc1Cc1ccnc(C(F)(F)F)c1 [Compound 2] , test system barley, winter (winter barley, Hordeum vulgare), was 20

Readout Plant response rating for Cc1cc(=O)n(-c2ccc(F)cc2)nc1Cc1ccnc(C(F)(F)F)c1 [Compound 1] , test system barley, winter (winter barley, Hordeum vulgare), was 10

Readout Plant response rating for Cc1cc(=O)n(-c2ccc(F)cc2)nc1Oc1ccnc(C(F)(F)F)c1 [Compound 14] , test system barley, winter (winter barley, Hordeum vulgare), was 25

* * *

- Tested on: lambsquarters (Chenopodium album)
- Method: Test C pre-/postemergence greenhouse herbicide test
- Assay type: in vivo
- Condition Label: Preemergence, 31 g ai/ha
Observation Type: Plant response rating
// print number alone

A selection of reference data follows.
Cc1cc(=O)n(-c2ccc(C(F)(F)F)cc2)nc1Cc1ccnc(C(F)(F)F)c1 : 100
CCOc1cc(=O)n(-c2ccc(F)cc2)nc1Cc1ccnc(C(F)(F)F)c1 : 100

Readout Plant response rating for `Cc1cc(=O)n(-c2ccc(F)cc2)nc1Cc1ccnc(C(F)(F)F)c1` , test system lambsquarters (Chenopodium album), was 100

Readout Plant response rating for `COc1cc(=O)n(-c2ccc(C(F)(F)F)cc2)nc1Cc1ccnc(C(F)(F)F)c1` , test system lambsquarters (Chenopodium album), was 100

Readout Plant response rating for `Cc1cc(=O)n(-c2ccc(F)cc2)nc1Oc1ccnc(C(F)(F)F)c1` , test system lambsquarters (Chenopodium album), was 55

Readout Plant response rating for `COc1cc(=O)n(-c2ccc(F)cc2)nc1Cc1ccnc(C(F)(F)F)c1` , test system lambsquarters (Chenopodium album), was 95

* * *

- Tested on: barnyardgrass (Echinochloa crus-galli)
- Method: Test C pre-/postemergence greenhouse herbicide test
- Format: in vivo
- Condition Label: Barnyardgrass; Postemergence; 31 g ai/ha
Observation Type: Plant response rating
// print number alone

Lab note: Cc1cc(=O)n(-c2ccc(F)cc2)nc1Cc1ccnc(C(F)(F)F)c1 [Compound 1] gave Plant response rating of 10

* * *

- System: crabgrass, Large (large crabgrass, Digitaria sanguinalis)
- Method: Test C pre-/postemergence greenhouse herbicide test
- Format: in vivo
- Condition Label: Digitaria sanguinalis, post-emergence; Crabgrass, Large; Postemergence; 62 g ai/ha; read-out: Plant response rating
Below, each entry is listed alongside its reported pest or weed control at 62 g/ha.
Numbers only; they are read as %.

COc1cc(=O)n(-c2ccc(C(F)(F)F)cc2)nc1Cc1ccnc(C(F)(F)F)c1 [Compound 16] : 25

Now look at this one.
Lab note: Cc1cc(=O)n(-c2ccc(F)cc2)nc1Cc1ccnc(C(F)(F)F)c1 [Compound 1] gave pest or weed control at 62 g/ha of 5

* * *

- System: velvetleaf (Abutilon theophrasti)
- Method: Test A pre-/postemergence greenhouse herbicide test
- Format: in vivo
- Condition Label: Abutilon theophrasti, post-emergence, 240 h; Postemergence, 125 g ai/ha; 0 to 100 scale (0 no effect, 100 complete control), approx. 10 d; read-out: Plant response rating, Velvetleaf
Where pest or weed control at 125 g/ha equals or exceeds 40%, the correct label is criterion met; where it does not, the label is criterion not met.

CCOc1cc(=O)n(-c2ccc(F)cc2)nc1Cc1ccnc(C(F)(F)F)c1 [Compound 25] : criterion met
COc1cc(=O)n(-c2ccc(F)cc2)nc1Cc1ccnc(C(F)(F)F)c1 [Compound 17] : criterion met
Cc1cc(=O)n(-c2ccc(F)cc2)nc1Oc1ccnc(C(F)(F)F)c1 [Compound 14] : criterion met
COc1cc(=O)n(-c2ccc(C(F)(F)F)cc2)nc1Cc1ccnc(C(F)(F)F)c1 [Compound 16] : criterion met
Cc1cc(=O)n(-c2ccc(F)cc2)nc1Cn1ccc(C(F)(F)F)n1 [Compound 3] : criterion not met

Okay, now this molecule:
Is reported pest or weed control at 125 g/ha greater than or equal to 40% here: CCOc1cc(=O)n(-c2ccc(F)cc2)nc1C(=O)c1ccnc(C(F)(F)F)c1 [Compound 22]
criterion not met

These measurements were taken from patent US10202361B2.
